# maps each entry to its log10 of Ki
target: HIV-1 protease (Human immunodeficiency virus type 1 group M subtype B, UniProt P04585)
assay_text: biochemical
experimental_conditions: read-out: HIV Protease FITC Assay Ki
endpoint: log10 of Ki (log10 of the value in nM)

compound	endpoint	value
CCCC1(CCc2ccccc2)CC(O)=C(C(CC)c2cccc(NS(=O)(=O)c3ccc(F)cc3)c2)C(=O)O1 (stereo not shown) [Example 93A]	log10 of Ki	0.78
O=c1oc2c(c(O)c1C(c1cccc(CS(=O)(=O)c3ccccc3)c1)C1CC1)CCCCCC2 (stereo not shown) [Example 10]	log10 of Ki	0.76
CCCC1(CCc2ccccc2)CC(O)=C(C(CC)c2cccc(NS(=O)(=O)c3cn(C)cn3)c2)C(=O)O1 (stereo not shown) [Example 41]	log10 of Ki	0.50
CCCC1(CCc2ccccc2)CC(O)=C(C(CC)c2cccc(NS(=O)(=O)c3cccc4cccnc34)c2)C(=O)O1 (stereo not shown) [Example 42]	log10 of Ki	0.49
CC[C@H](Cc1ccccc1)c1cc(O)c(C(c2cccc(NS(=O)(=O)c3ncc[nH]3)c2)C2CC2)c(=O)o1 (stereo partly shown) [Example 147]	log10 of Ki	0.00
CCCC1(CCc2ccc(F)cc2)CC(O)=C(C(CC)c2cccc(NS(=O)(=O)c3cn(C)cn3)c2)C(=O)O1 (stereo not shown) [Example 254]	log10 of Ki	0.48
O=c1oc(C(CC2CC2)CC2CC2)cc(O)c1C(c1cccc(NS(=O)(=O)c2ccc(F)cc2)c1)C1CC1 (stereo not shown) [Example 94]	log10 of Ki	1.21
CCCC1(CCc2ccccc2)CC(O)=C(C(c2cccc(NS(=O)(=O)c3ccc(C#N)cn3)c2)C(C)(C)C)C(=O)O1 (stereo not shown) [Example 251]	log10 of Ki	0.28
CCC(C1=C(O)CC(CC)(c2cccc(NS(=O)(=O)c3ccc(C#N)cn3)c2)OC1=O)c1cccc(NS(=O)(=O)c2ccc(C#N)cn2)c1 (stereo not shown) [Example 249]	log10 of Ki	-0.12
Cn1cnc(S(=O)(=O)Nc2cccc(C(c3c(O)cc(C(CC4CC4)CC4CC4)oc3=O)C3CC3)c2)c1 (stereo not shown) [Example 97]	log10 of Ki	0.00

Source listed as patent US6169181A.
